Cited source for all entries: patent US20250248979A1

# MEASURED ON: GPX4 (Homo sapiens)
# TEST: GPX4 activity assay in cell lysates (NADPH-coupled)
# Format: biochemical
# Parameters: endogenous in cells; host or cells: A-673 cell lysate
# CONDITION CONTEXT: 2.5 μM; 4th generation
PROPERTY LABEL: GPX4% inhibition at 2.5 μM
Remember to put the unit after the number in your answer.

>  <SUBSTANCE SMILES>
CCCOc1ccc(-c2ccc3c(C(=O)NC(C)(C)COC(=O)CCl)nn(Cc4ccc(Cl)cc4)c3c2)cc1Cl

>  <MEASURED ON>
GPX4 (Homo sapiens)

>  <RESULT>
91.5 ± 3.9%

$$$$
>  <SUBSTANCE SMILES>
COc1c(Cl)cc(-c2ccc3c(C(=O)NC(C)(C)COC(=O)CCl)nn(Cc4ccc(Cl)cc4)c3c2)cc1Cl

>  <MEASURED ON>
GPX4 (Homo sapiens)

>  <RESULT>
76.8 ± 11.4%

$$$$
>  <SUBSTANCE SMILES>
CC(C)(COC(=O)CCl)NC(=O)c1nn(Cc2ccc(-c3ccc(N4CCOCC4)c(Cl)c3)cc2)c2cc(-c3ccc(N4CCOCC4)c(Cl)c3)ccc12

>  <MEASURED ON>
GPX4 (Homo sapiens)

>  <RESULT>
41.1 ± 40.9%

$$$$

From here, focus on the item given below.
Returns the measured GPX4% inhibition at 2.5 μM for the input compound. Input: CC(C)Oc1ccc(-c2ccc3c(C(=O)NC(C)(C)COC(=O)CCl)nn(Cc4cc(Cl)cc(Cl)c4)c3c2)cc1Cl
66.7 ± 26.2%

###

Could you please report measured IC50 for the items listed next?
# System: U-2932
# TEST: Cytotoxicity in DLBCL cells, U-2932
# Assay type: cell-based, human
# CONDITION CONTEXT: U-2932; Fer-1 1.0 μM; read-out: IC50 (μM) with Fer-1
Numbers only, in µM.

>  <MOLECULE>
COC(=O)c1ccc([C@@H]2c3[nH]c4ccccc4c3C[C@@H](C(=O)OC)N2C(=O)CCl)cc1 [RSL3, reference compound]

>  <RESULT>
316

$$$$

From here, focus on the item given below.
Returns the measured IC50 for the input molecule. Input: CC(C)(COC(=O)CCl)NC(=O)c1nn(Cc2cc(Cl)cc(Cl)c2)c2cc(-c3ccc(N4CCOCC4)c(Cl)c3)ccc12
7.9

###

Could you please report measured GPX4% inhibition at 5 μM for the items listed next?
# MEASURED ON: GPX4 (Homo sapiens)
# TEST: GPX4 activity assay in cell lysates (NADPH-coupled)
# Assay type: biochemical
# Design: endogenous in cells; host or cells: A-673 cell lysate
# CONDITION CONTEXT: 5 μM
Answers are plain numbers, in %.

Solved entries:
>  <SUBSTANCE SMILES>
Cn1nc(C(=O)NC(C)(C)COC(=O)CCl)c2ccc(-c3ccc(N4CCOCC4)c(Cl)c3)cc21

>  <GPX4% inhibition at 5 μM [%]>
95.8

$$$$
>  <SUBSTANCE SMILES>
COc1ccc(-c2ccc3c(C(=O)NC(C)(C)COC(=O)CCl)nn(C)c3c2)cc1Cl

>  <GPX4% inhibition at 5 μM [%]>
88.1

$$$$
>  <SUBSTANCE SMILES>
C=Cc1ccc(-c2ccc3c(C(=O)NC(C)(C)COC(=O)CCl)nn(C)c3c2)cc1

>  <GPX4% inhibition at 5 μM [%]>
41.4

$$$$

From here, focus on the item given below.
Returns the measured GPX4% inhibition at 5 μM for the input molecule. Input: Cn1nc(C(=O)NC(C)(C)COC(=O)CCl)c2ccc(-c3ccc(COC(=O)CCl)cc3)cc21
50.1

###

Could you please report measured Solubility for the items listed next?
# TEST: Kinetic aqueous solubility
# CONDITION CONTEXT: aqueous solubility; Table 9

Solved entries:
>  <SUBSTANCE SMILES>
COc1ccc(-c2ccc3c(C(=O)NC(C)(C)COC(=O)CCl)nn(C)c3c2)cc1Cl

>  <RESULT>
>1000 µM

$$$$
>  <SUBSTANCE SMILES>
CC(C)(COC(=O)CCl)NC(=O)c1cc2ccc(Br)cc2[nH]1

>  <RESULT>
23 µM

$$$$
>  <SUBSTANCE SMILES>
Cn1nc(C(=O)NC(C)(C)COC(=O)CCl)c2ccc(-c3ccc(Oc4ccccc4)c(Cl)c3)cc21

>  <RESULT>
15.6 µM

$$$$
>  <SUBSTANCE SMILES>
Cn1nc(C(=O)NC(C)(C)COC(=O)CCl)c2ccc(-c3ccc(N4CCOCC4)c(Cl)c3)cc21

>  <RESULT>
7.8 µM

$$$$

From here, focus on the item given below.
Returns the measured Solubility for the input compound. Input: Cn1nc(C(=O)NC(C)(C)COC(=O)CCl)c2ccccc21
98 µM

###

Could you please report measured GPX4% inhibition at 2.5 μM for the items listed next?
# MEASURED ON: GPX4 (Homo sapiens)
# Sequence (P36969 1-170 isoform P36969-2): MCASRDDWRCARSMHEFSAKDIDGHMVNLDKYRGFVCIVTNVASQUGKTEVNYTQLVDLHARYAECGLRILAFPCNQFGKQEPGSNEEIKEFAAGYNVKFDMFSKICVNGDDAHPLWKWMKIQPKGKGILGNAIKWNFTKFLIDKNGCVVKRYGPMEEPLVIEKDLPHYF
# TEST: GPX4 activity assay in cell lysates (NADPH-coupled)
# Assay type: biochemical
# Set-up: endogenous in cells; host or cells: A-673 cell lysate
# CONDITION CONTEXT: 2.5 μM
Give bare numbers, in %.

For every item below, please supply its GPX4% inhibition at 2.5 μM.
1. Cn1nc(C(=O)NCC(C)(C)OC(=O)CCl)c2ccc(-c3ccc(N4CCOCC4)c(Cl)c3)cc21 [QW-775]
2. C=CC(=O)OCC(C)(C)NC(=O)c1nn(C)c2cc(-c3ccc(OC)c(Cl)c3)ccc12 [QW-609]
3. Cn1nc(-n2cc(C(C)(C)CNC(=O)CCl)nn2)c2ccc(-c3ccc(N4CCOCC4)c(Cl)c3)cc21 [QW-793]

36.2
6.7
−53.4

For every item below, please supply its GPX4% inhibition at 2.5 μM.
1. COc1c(Cl)cc(-c2ccc3c(C(=O)NC(C)(C)COC(=O)CCl)nn(C)c3c2)cc1C(F)(F)F [QW-815]
2. COc1c(Cl)cc(-c2ccc3c(C(=O)NCC(C)(C)OC(=O)CCl)nn(C)c3c2)cc1Cl [QW-778]
3. Cn1nc(-n2cc(CCOC(=O)CCl)nn2)c2ccc(-c3ccc(OC(F)(F)F)c(Cl)c3)cc21 [QW-764]
4. Cn1nc(C(=O)NC(C)(C)COC(=O)CCl)c2ccc(-c3ccc(NS(C)(=O)=O)cc3)cc21 [QW-618]

1: 79.3; 2: 30.4; 3: 25.4; 4: 18.1

###

Could you please report measured Plasma Stability t1/2 (min) mouse for the items listed next?
Numbers only, in min.

For every item below, please supply its Plasma Stability t1/2 (min) mouse.
1. Cn1nc(C(=O)NC(C)(C)CNC(=O)CCl)c2ccc(Br)cc21
2. Cn1nc(-n2cc(C(C)(C)COC(=O)CCl)nn2)c2ccc(-c3ccc(N4CCOCC4)c(Cl)c3)cc21
3. COc1ccc(CNS(=O)(=O)c2ccc(-c3ccc4c(C(=O)NC(C)(C)COC(=O)CCl)nn(C)c4c3)cc2)cc1
4. COc1ccc(-c2ccc3c(C(=O)NC(C)(C)CNC(=O)CCl)nn(C)c3c2)cc1Cl
5. Cn1nc(C(=O)NC(C)(C)COC(=O)CCl)c2ccc(-c3ccc(OC(F)(F)F)c(Cl)c3)cc21

[685, 3.2, 6.2, 311, 4.7]

For every item below, please supply its Plasma Stability t1/2 (min) mouse.
1. Cn1nc(C(=O)NC(C)(C)COC(=O)CCl)c2ccc(-c3ccc(Cl)c(Cl)c3)cc21
2. CC(C)Oc1ccc(-c2ccc3c(C(=O)NC(C)(C)COC(=O)CCl)nn(C)c3c2)cc1Cl
3. COc1ccc(-c2ccc3c(C(=O)NC(C)(C)C(C)(C)OC(=O)CCl)nn(C)c3c2)cc1Cl
4. CC(OC(=O)CCl)C(C)(C)NC(=O)c1nn(C)c2cc(-c3ccc(N4CCOCC4)c(Cl)c3)ccc12 (racemic)
5. COc1ccc(-c2ccc3c(C(=O)NC(C)(C)COC(=O)CCl)nn(C)c3c2)cc1Cl
6. Cn1nc(C(=O)NC(C)(C)COC(=O)CCl)c2ccc(-c3ccc4c(c3)OCO4)cc21

[16.9, 12.5, 385, 6.6, 24.0, 17.0]

###

Could you please report measured GPX4% inhibition at 5 μM for the items listed next?
# MEASURED ON: GPX4 (Homo sapiens, UniProt P36969)
# TEST: GPX4 activity assay in cell lysates (NADPH-coupled)
# Assay type: biochemical
# Parameters: endogenous in cells; host or cells: A-673 cell lysate
# CONDITION CONTEXT: 5 μM; generation 2
Numbers only, in %.

Solved entries:
>  <COMPOUND>
Cn1nc(C(=O)NCCCCCC(O)S(=O)(=O)[O-])c2ccc(Br)cc21.[Na+] (stereo not drawn)

>  <MEASURED ON>
GPX4 (Homo sapiens, UniProt P36969)

>  <GPX4% inhibition at 5 μM / %>
−10.7

$$$$
>  <COMPOUND>
Cn1nc(C(=O)NCCCCC(O)S(=O)(=O)[O-])c2ccc(Br)cc21.[Na+] (stereo not drawn)

>  <MEASURED ON>
GPX4 (Homo sapiens, UniProt P36969)

>  <GPX4% inhibition at 5 μM / %>
−36.6

$$$$
>  <COMPOUND>
CC=CC(=O)OCC(C)(C)NC(=O)c1nn(C)c2ccccc12

>  <MEASURED ON>
GPX4 (Homo sapiens, UniProt P36969)

>  <GPX4% inhibition at 5 μM / %>
−6.0

$$$$
>  <COMPOUND>
Cn1nc(C(=O)NC(C)(C)COC(=O)CBr)c2ccc(Br)cc21

>  <MEASURED ON>
GPX4 (Homo sapiens, UniProt P36969)

>  <GPX4% inhibition at 5 μM / %>
25.3

$$$$

For every item below, please supply its GPX4% inhibition at 5 μM.
1. Cn1nc(C(=O)NCCCCCC=O)c2ccc(Br)cc21
2. C=CC(=O)OCC(C)(C)NC(=O)c1nn(C)c2cc(Br)ccc12

−15.1
−5.2

For every item below, please supply its GPX4% inhibition at 5 μM.
1. Cn1nc(C(=O)NCCCCCCOC(=O)CCl)c2ccc(Br)cc21
2. Cn1nc(C(=O)NC(C)(C)COC(=O)CCl)c2cccnc21
3. CC(C)(COC(=O)CCl)NC(=O)c1nc2cc(Br)ccc2[nH]1
4. Cn1nc(C(=O)NC(C)(C)COC(=O)C#C[Si](C)(C)C)c2ccc(Br)cc21
5. Cn1nc(C(=O)NC(C)(C)CC(O)S(=O)(=O)[O-])c2ccccc21.[Na+] (stereo not drawn)
6. COC(=O)C=CC(=O)OCC(C)(C)NC(=O)c1nn(C)c2cc(Br)ccc12

1. −9.8
2. −11.3
3. −14.3
4. −5.6
5. 4.5
6. −9.4
